Values compiled from patent US10654834B2.

- protocol_description: Pharmacokinetic profile in mice after oral gavage
- Assay type: in vivo, mouse
- condition_set: mouse; fasted male Hilltop mice, 10 mg/kg oral gavage, plasma; read-out: Cmax
Each entry gets label 0 if its Cmax stays under 3 ng/mL, and label 1 if its Cmax is 3 ng/mL or above.

Task: Quick check, Cmax >= 3 ng/mL? O=C(CCCC1CCN(c2cc(N3CCC[C@H]3C(=O)NCCc3ccc(C(F)(F)F)cc3)nc(C(F)(F)F)n2)CC1)NCCNc1ncnc2c1ncn2[C@@H]1O[C@H](CO)C(O)C1O (stereo partly drawn)
Result: label 0

Task: Quick check, Cmax >= 3 ng/mL? N#Cc1ccc(CCNC(=O)[C@@H]2CCCN2c2cc(N3CCC(CCNc4c(NCP(=O)(O)O)c(=O)c4=O)CC3)nc(C(F)(F)F)n2)cc1
Result: label 0

Task: Quick check, Cmax >= 3 ng/mL? N#Cc1ccc(CCNC(=O)[C@@H]2CCN2c2cc(N3CCC(CCNS(=O)(=O)CCNC(=O)[C@@H](N)CS(=O)(=O)O)CC3)nc(C(F)(F)F)n2)cc1
Result: label 0

Task: Quick check, Cmax >= 3 ng/mL? N#Cc1ccc(CCNC(=O)[C@@H]2CCCN2c2cc(N3CCC(CCCC(=O)NCC(=O)O)CC3)nc(C(F)(F)F)n2)cc1
Result: label 1

Task: Quick check, Cmax >= 3 ng/mL? N#Cc1ccc(CCNC(=O)[C@@H]2CCCN2c2cc(N3CCC(CCCC(=O)NCCC(=O)NC(CO)(CO)CO)CC3)nc(C(F)(F)F)n2)cc1
Result: label 1

Task: Quick check, Cmax >= 3 ng/mL? N#Cc1ccc(CCNC(=O)[C@@H]2CCCN2c2cc(N3CCC(CCCC(=O)NCCC(=O)O)CC3)nc(C(F)(F)F)n2)cc1
Result: label 1

* * *

- protocol_description: Portal vein versus systemic pharmacokinetics in hepatic portal vein cannulated CD(SD) rats
- Assay type: in vivo
- condition_set: male, rat, plasma (systemic blood), Peripheral bleed (retro-orbital sinus), 10 mg/kg oral
quantity: Cmax (ng/mL)
Supply the numeric figure in ng/mL, leaving out any unit text.

Task: Provide measured Cmax value, entry: N#Cc1ccc(CCNC(=O)[C@@H]2CCN2c2cc(N3CCC(CCNC(=O)NCCC(=O)O)CC3)nc(C(F)(F)F)n2)cc1 [Compound 268]
Result: 43.9

* * *

- target: mouse TGR5 receptor (Mus musculus)
- Construct: host or cells: HEK293-EBNA (293 c18, ATCC CRL10852)
- Sequence (Q80SS6 whole entry): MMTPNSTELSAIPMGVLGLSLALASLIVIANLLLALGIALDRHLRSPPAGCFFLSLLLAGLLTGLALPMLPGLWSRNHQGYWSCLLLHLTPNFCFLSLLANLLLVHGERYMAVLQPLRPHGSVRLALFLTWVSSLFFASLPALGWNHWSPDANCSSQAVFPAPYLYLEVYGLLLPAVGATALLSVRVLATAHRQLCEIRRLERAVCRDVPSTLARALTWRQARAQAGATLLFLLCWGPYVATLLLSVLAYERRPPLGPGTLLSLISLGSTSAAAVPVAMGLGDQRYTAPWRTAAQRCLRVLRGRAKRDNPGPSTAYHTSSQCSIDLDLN
- protocol_description: Mouse TGR5 HTRF cAMP production assay (HEK293-EBNA cells, Cisbio cAMP HiRange kit)
- Assay type: cell-based
- condition_set: HEK293-EBNA cells overexpressing mouse TGR5, HTRF cAMP assay
quantity: EC50

Task: Provide measured EC50 value, entry: N#Cc1ccc(CCNC(=O)[C@@H]2CCCN2c2cc(N3CCC(CCNC(=O)[C@@H](N)CS(=O)(=O)O)CC3)nc(C(F)(F)F)n2)cc1
Result: < 100 nM

Task: Provide measured EC50 value, entry: N#Cc1ccc(CCNC(=O)[C@@H]2CCN2c2cc(N3CCC(CCNC(=O)NCCOCCNC(=O)CS(=O)(=O)O)CC3)nc(C(F)(F)F)n2)cc1
Result: < 100 nM

Task: Provide measured EC50 value, entry: N#Cc1ccc(CCNC(=O)[C@@H]2CCCN2c2cc(N3CCN(CCO)CC3)nc(C(F)(F)F)n2)cc1
Result: < 100 nM

* * *

- protocol_description: Portal vein versus systemic pharmacokinetics in hepatic portal vein cannulated CD(SD) rats
- Format: in vivo
- condition_set: male, rat, plasma (portal vein blood), Portal Vein bleed, 10 mg/kg oral
quantity: Tmax

Task: Provide measured Tmax value, entry: N#Cc1ccc(CCNC(=O)[C@@H]2CCN2c2cc(N3CCC(CCNC(=O)NCCC(=O)O)CC3)nc(C(F)(F)F)n2)cc1 [Compound 268]
Result: 15 to 60 min

* * *

- protocol_description: Comparison of PK in DIO mice and lean mice
- Assay type: in vivo, mouse
- condition_set: C57BL/6N, mouse, plasma, po, 10 mg/kg, Lean mice, Non-fasted PK, p.o. (Table 57)
quantity: Cmax
Could you write the number and then its unit?

Task: Provide measured Cmax value, entry: N#Cc1ccc(CCNC(=O)[C@@H]2CCN2c2cc(N3CCC(CCNC(=O)NCCC(=O)O)CC3)nc(C(F)(F)F)n2)cc1
Result: 2.1 nM

* * *

For each of the compounds below, state its pEC50.
- target: human TGR5 receptor (Homo sapiens, UniProt Q8TDU6)
- Sequence (Q8TDU6 whole entry): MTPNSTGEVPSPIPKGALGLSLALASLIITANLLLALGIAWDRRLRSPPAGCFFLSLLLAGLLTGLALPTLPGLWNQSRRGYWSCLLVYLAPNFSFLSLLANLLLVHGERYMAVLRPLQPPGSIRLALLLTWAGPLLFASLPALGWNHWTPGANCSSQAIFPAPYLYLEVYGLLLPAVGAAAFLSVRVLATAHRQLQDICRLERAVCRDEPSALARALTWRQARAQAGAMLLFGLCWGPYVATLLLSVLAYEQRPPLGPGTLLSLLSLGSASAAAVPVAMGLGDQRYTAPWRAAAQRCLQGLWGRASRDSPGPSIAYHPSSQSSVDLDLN
- protocol_description: Human TGR5 cAMP production assay (hTGR5-CHO cells, DiscoveRx cAMP XS+ kit)
- condition_set: luminescent cAMP assay, read-out: Human TGR5 Lum. cAMP Activity (EC50)
pEC50: −log10 of the molar value.

Task: Provide measured pEC50 value, entry: N#Cc1ccc(CCNC(=O)[C@@H]2CCN2c2cc(N3CCC(CCNC(=N)N)CC3)nc(C(F)(F)F)n2)cc1
Result: > 7.00

Task: Provide measured pEC50 value, entry: N#Cc1ccc(CCNC(=O)[C@@H]2CCN2c2cc(N3CCC(CCCC(=O)NCP(=O)(O)O)CC3)nc(C(F)(F)F)n2)cc1
Result: > 7.00

Task: Provide measured pEC50 value, entry: N#Cc1ccc(CCNC(=O)[C@@H]2CCN2c2cc(-c3ccccn3)nc(C(F)(F)F)n2)cc1
Result: 6.00 to 7.00

Task: Provide measured pEC50 value, entry: N#Cc1ccc(CCNC(=O)[C@@H]2CCCN2c2cc(N3CCC(CCNC(=O)NCCNC(=O)[C@@H](N)CS(=O)(=O)O)CC3)nc(C(F)(F)F)n2)cc1
Result: > 7.00

Task: Provide measured pEC50 value, entry: CCOc1ccc(-c2cc(N3CCC[C@H]3C(=O)NCCc3ccc(C#N)cc3)nc(C(F)(F)F)n2)cc1
Result: 6.00 to 7.00

Task: Provide measured pEC50 value, entry: COCC(=O)N1CCN(c2cc(N3CCC[C@@H](C(=O)NCCc4ccc(C(F)(F)F)cc4)C3)nc(C(F)(F)F)n2)CC1
Result: 6.00 to 7.00

Task: Provide measured pEC50 value, entry: CC(C)(C)OC(=O)N[C@@H](CO)C(=O)N1CCN(c2cc(N3CCC[C@@H](C(=O)NCCc4ccc(C(F)(F)F)cc4)C3)nc(C(F)(F)F)n2)CC1
Result: 4.52 to 6.00

Task: Provide measured pEC50 value, entry: N#Cc1ccc(CCNC(=O)[C@@H]2CCCN2c2cc(N3CCC(CCCC(=O)N4CCN(CC(=O)O)CC4)CC3)nc(C(F)(F)F)n2)cc1
Result: > 7.00

Task: Provide measured pEC50 value, entry: CC(C)(C)OC(=O)NC1CCN(c2cc(N3CCC[C@H]3C(=O)NCCc3ccc(C#N)cc3)nc(C(F)(F)F)n2)CC1
Result: 6.00 to 7.00

Task: Provide measured pEC50 value, entry: N#Cc1ccc(CCNC(=O)[C@@H]2CCCN2c2cc(N3CCC(COCC(=O)NCCS(=O)(=O)O)CC3)nc(C(F)(F)F)n2)cc1
Result: > 7.00

Task: Provide measured pEC50 value, entry: N#Cc1ccc(CCNC(=O)[C@@H]2CCN2c2cc(-c3ccncc3)nc(C(F)(F)F)n2)cc1
Result: 6.00 to 7.00

Task: Provide measured pEC50 value, entry: O=C(NCCc1ccc(C(F)(F)F)cc1)[C@@H]1CCCN(c2cc(N3CCC(CO)CC3)nc(C(F)(F)F)n2)C1
Result: > 7.00

Task: Provide measured pEC50 value, entry: COc1cc(C(F)(F)F)ccc1CCNC(=O)[C@@H]1CCCN(c2cc(N3CCC(CCO)CC3)nc(C(F)(F)F)n2)C1
Result: > 7.00

* * *

- target: mouse TGR5 receptor (Mus musculus)
- Construct: host or cells: HEK293-EBNA (293 c18, ATCC CRL10852)
- protocol_description: Mouse TGR5 HTRF cAMP production assay (HEK293-EBNA cells, Cisbio cAMP HiRange kit)
- Assay type: cell-based
- condition_set: HEK293-EBNA cells overexpressing mouse TGR5, HTRF cAMP assay
quantity: EC50

Task: Provide measured EC50 value, entry: N#Cc1ccc(CCNC(=O)[C@@H]2CCCN2c2cc(N3CCC(CCNC(=O)NCCC(=O)NCCS(=O)(=O)O)CC3)nc(C(F)(F)F)n2)cc1
Result: < 100 nM

Task: Provide measured EC50 value, entry: N=C(N)NCCC[C@H](NC(=O)CCC1CCN(c2cc(N3CC[C@H]3C(=O)NCCc3ccc(C(F)(F)F)cc3)nc(C(F)(F)F)n2)CC1)C(=O)O
Result: < 100 nM

Task: Provide measured EC50 value, entry: N#Cc1ccc(CCNC(=O)[C@@H]2CCCN2c2cc(N3CCC(CCCO)CC3)nc(C(F)(F)F)n2)cc1
Result: < 100 nM

Task: Provide measured EC50 value, entry: CC(C)(C)OC(=O)NCCC1CCN(c2cc(N3CCC[C@@H](C(=O)NCCc4ccc(C#N)cc4)C3)nc(C(F)(F)F)n2)CC1
Result: 100 to 999 nM

Task: Provide measured EC50 value, entry: O=C(CCCC1CCN(c2cc(N3CCC[C@H]3C(=O)NCCc3ccc(C(F)(F)F)cc3)nc(C(F)(F)F)n2)CC1)NCCNc1ncnc2[nH]cnc12
Result: < 100 nM

Task: Provide measured EC50 value, entry: N#Cc1ccc(CCNC(=O)[C@@H]2CCCN2c2cc(-c3ccc(CCC(=O)O)cc3)nc(C(F)(F)F)n2)cc1
Result: < 100 nM
